Origin of the recorded values: patent US5594024A

# Tested on: non-pretreated rats
# assay.notes: Locomotor activity and gross behavior in non-habituated (non-pretreated) rats
# experimental.conditions: 100 sc; non-pretreated rats, 30 min
Let's look at some molecules and their measured Motor Act..
experimental.readout: Motor Act.

1) CCN1CCC[C@@H](c2cccc(OS(=O)(=O)C(F)(F)F)c2)C1 [S-(-)-14] ... 103 ± 19 % of saline controls
2) CN1CCC[C@@H](c2cccc(C#N)c2)C1 [S-(+)-32] ... 79 ± 2 % of saline controls
3) CCN1CCC[C@@H](c2cccc(C#N)c2)C1 [S-(-)-33] ... 113 ± 7 % of saline controls
4) CCCCN1CCC[C@@H](c2cccc(OS(=O)(=O)C(F)(F)F)c2)C1 [S-(-)-16] ... 116 ± 21 % of saline controls
5) C=Cc1cccc([C@@H]2CCCN(CCC)C2)c1 [(-)-R-41] ... 125 ± 13 % of saline controls

###

# assay.notes: in vivo
# Parameters: species or system rat (male Sprague-Dawley)
# experimental.conditions: rat, iv
# Method: This is in contrast to the actions of the preferential dopamine autoreceptor antagonists (+)-AJ76 and (+)-UH232 5. The blood levels of (±)-34 were measured after oral (40 μmol/kg) and iv (5 μmol/kg) administration of the drug to male Sprague-Dawley rats (250-300 g) that were cannulated with catheters in the jugular vein and the arteria carotis. The levels of (±)-34 were measured in whole blood by means of GC-MS. […]
experimental.readout: half-life

1) CCCN1CCCC(c2cccc(C#N)c2)C1 (racemic) [(±)-34, 3-(3-cyanophenyl-N-n-propyl)piperidine] ... ~3 h

###

Let's look at some molecules and their measured IC50.
# target: 5-HT1A (Rattus norvegicus, UniProt P19327)
# Construct: the whole brain with the exception of the brainstem and cerebellum was rapidly removed; from tissue
# Sequence (P19327 1-422): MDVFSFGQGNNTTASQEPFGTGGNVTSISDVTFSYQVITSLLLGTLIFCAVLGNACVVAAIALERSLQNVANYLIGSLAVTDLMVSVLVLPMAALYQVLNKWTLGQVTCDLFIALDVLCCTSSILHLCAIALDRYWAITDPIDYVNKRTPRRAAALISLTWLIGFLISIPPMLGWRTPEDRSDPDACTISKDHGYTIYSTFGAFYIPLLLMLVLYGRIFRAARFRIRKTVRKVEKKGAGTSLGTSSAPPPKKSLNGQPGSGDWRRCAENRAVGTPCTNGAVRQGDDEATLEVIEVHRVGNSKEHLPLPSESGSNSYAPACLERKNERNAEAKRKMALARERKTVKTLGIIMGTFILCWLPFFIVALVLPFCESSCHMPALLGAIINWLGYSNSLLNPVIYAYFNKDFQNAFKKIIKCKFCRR
# assay.notes: 5-HT1A radioligand binding ([3H]-8-OH-DPAT)
# Set-up: species or system rat (male Sprague-Dawley)
# experimental.conditions: [3H]-8-OH-DPAT, rat cortex; read-out: in vitro binding IC50, 5HT1A
experimental.readout: IC50 (µM)

1. CCCCN1CCC[C@@H](c2cccc(C#N)c2)C1 ... 5.6
2. CCCN1CCCC(c2ccccc2OS(=O)(=O)C(F)(F)F)C1 (racemic) [Racemic-19] ... 1.4
3. C=CCN1CCC[C@@H](c2cccc(OS(=O)(=O)C(F)(F)F)c2)C1 ... 4.2
4. O=S(=O)(Oc1cccc([C@@H]2CCCN(CCc3ccccc3)C2)c1)C(F)(F)F ... 0.23
5. N#Cc1cccc([C@@H]2CCCN(CCc3cccs3)C2)c1 ... 0.4
6. CCCN1CCC[C@@H](c2cccc(C#N)c2)C1 [S-(-)-34] ... 75
7. C=CCN1CCC[C@@H](c2cccc(C#N)c2)C1 ... 12
8. CN1CCC[C@@H](c2cccc(OS(=O)(=O)C(F)(F)F)c2)C1 [S-(+)-13] ... 2.8

###

# target: 5-HT1A (Rattus norvegicus, UniProt P19327)
# Construct: the whole brain with the exception of the brainstem and cerebellum was rapidly removed; from tissue
# assay.notes: 5-HT1A radioligand binding ([3H]-8-OH-DPAT)
# Set-up: species or system rat (male Sprague-Dawley)
pIC50: −log10 of the molar value.
experimental.readout: pIC50

1. N#Cc1cccc([C@@H]2CCCNC2)c1 ... 5.00

###

Let's look at some molecules and their measured IC50.
# target: 5-HT1A (Rattus norvegicus)
# Construct: the whole brain with the exception of the brainstem and cerebellum was rapidly removed; from tissue
# assay.notes: 5-HT1A radioligand binding ([3H]-8-OH-DPAT)
# Design: species or system rat (male Sprague-Dawley)
# experimental.conditions: [3H]-8-OH-DPAT, rat cortex; read-out: in vitro binding IC50, 5HT1A
experimental.readout: IC50

1) N#Cc1cccc([C@@H]2CCCN(CCc3ccccc3)C2)c1 ... 0.15 µM
2) CCCN1CCC(c2cccc(OS(=O)(=O)C(F)(F)F)c2)C1 (racemic) [Racemic-21] ... 3.2 µM
3) N#Cc1cccc([C@@H]2CCCN(CC3CC3)C2)c1 ... 7.9 µM
4) CCCCN1CCC[C@@H](c2cccc(OS(=O)(=O)C(F)(F)F)c2)C1 [S-(-)-16] ... 1.3 µM
5) CCCN1CCCC(c2ccc(OS(=O)(=O)C(F)(F)F)cc2)C1 (racemic) [Racemic-20] ... 14 µM
6) CCCN1CCC[C@@H](c2cccc(OS(C)(=O)=O)c2)C1 ... 1.7 µM
7) CCCN1CCC[C@@H](c2cccc(C(N)=O)c2)C1 [S-(-)-29] ... 6.3 µM

###

Let's look at some molecules and their measured response vs control in vivo at 100 µmol/kg.
# System: DA receptor
# assay.notes: DA metabolism (DOPAC, HVA levels) in habituated rats
# Assay type: in vivo, rat (male Sprague-Dawley)
# experimental.conditions: Rattus norvegicus, 1 h; 100 μmol/kg sc, habituated rats; read-out: DOPAC striatum
experimental.readout: response vs control in vivo at 100 µmol/kg

1) CCN1CCC[C@@H](c2cccc(OS(=O)(=O)C(F)(F)F)c2)C1 [S-(-)-14] ... 293%
2) CCCN1CCC[C@@H](c2cccc(OS(C)(=O)=O)c2)C1 ... 276%
3) C=CCN1CCC[C@@H](c2cccc(OS(=O)(=O)C(F)(F)F)c2)C1 ... 222%
4) CN1CCC[C@@H](c2cccc(OS(=O)(=O)C(F)(F)F)c2)C1 [S-(+)-13] ... 172%
5) CCCCN1CCC[C@@H](c2cccc(OS(=O)(=O)C(F)(F)F)c2)C1 [S-(-)-16] ... 192%

###

# assay.notes: in vivo
# Set-up: species or system rat (male Sprague-Dawley)
# experimental.conditions: rat, po, oral bioavailability
experimental.readout: bioavailability

1. CCCN1CCCC(c2cccc(C#N)c2)C1 (racemic) [(±)-34, 3-(3-cyanophenyl-N-n-propyl)piperidine] ... ~78%

###

# target: D2 receptors (Rattus norvegicus)
# Construct: Preparation of rat striatal membranes for (3H)-spiperone; from tissue; host or cells: rat striatum (striatal membranes)
# Sequence (P61169 whole entry): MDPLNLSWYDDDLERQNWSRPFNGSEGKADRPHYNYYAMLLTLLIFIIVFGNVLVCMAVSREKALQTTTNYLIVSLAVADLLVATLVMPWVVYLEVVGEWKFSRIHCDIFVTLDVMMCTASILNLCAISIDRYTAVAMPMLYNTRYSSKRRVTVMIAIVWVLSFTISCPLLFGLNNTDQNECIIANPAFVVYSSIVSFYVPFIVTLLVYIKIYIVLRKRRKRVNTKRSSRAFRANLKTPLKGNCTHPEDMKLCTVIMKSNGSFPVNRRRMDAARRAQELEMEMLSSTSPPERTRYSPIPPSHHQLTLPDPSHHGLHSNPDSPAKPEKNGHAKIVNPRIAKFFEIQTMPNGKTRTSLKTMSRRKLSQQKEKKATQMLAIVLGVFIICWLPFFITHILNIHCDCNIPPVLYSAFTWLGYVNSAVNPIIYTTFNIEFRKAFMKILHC
# assay.notes: D2 antagonist binding ([3H]-spiperone), rat striatum
# experimental.conditions: read-out: in vitro binding IC50, D2 -spip; [3H]-spiperone, rat striatum
Let's look at some molecules and their measured IC50.
experimental.readout: IC50 (µM)

1) C=CCN1CCC[C@@H](c2cccc(C#N)c2)C1 ... 8.2
2) CCCN1CCC[C@H](c2cccc(C#N)c2)C1 [R-(+)-34] ... 100
3) CCCCN1CCC[C@@H](c2cccc(C#N)c2)C1 ... 3.7
4) CC(C)N1CCC[C@@H](c2cccc(C#N)c2)C1 ... 4.3
5) CCCN1CCC[C@@H](c2cccc(C#N)c2)C1 [S-(-)-34] ... 3.5

###

# target: D2 receptors (Rattus norvegicus)
# Construct: Preparation of rat striatal membranes for (3H)-spiperone; from tissue; host or cells: rat striatum (striatal membranes)
# assay.notes: D2 antagonist binding ([3H]-spiperone), rat striatum
# experimental.conditions: [3H]-spiperone, rat striatum; read-out: in vitro binding IC50, D2 -spip
pIC50: −log10 of the molar value.
Let's look at some compounds and their measured pIC50.
experimental.readout: pIC50

1) CCCN1CCC(c2cccc(OS(=O)(=O)C(F)(F)F)c2)C1 (racemic) [Racemic-21] ... 5.40
2) CCCCN1CCC[C@@H](c2cccc(OS(=O)(=O)C(F)(F)F)c2)C1 [S-(-)-16] ... 5.89
3) CCCN1CCC[C@@H](c2cccc(OS(C)(=O)=O)c2)C1 ... 4.60
4) CN1CCC[C@@H](c2cccc(C#N)c2)C1 [S-(+)-32] ... 4.30
5) N#Cc1cccc([C@@H]2CCCN(CCc3cccs3)C2)c1 ... 6.05

###

# System: DA receptor
# assay.notes: DA metabolism (DOPAC, HVA levels) in habituated rats
# Format: in vivo, rat (male Sprague-Dawley)
# experimental.conditions: Rattus norvegicus, 1 h; 100 μmol/kg sc, habituated rats; read-out: DOPAC striatum
experimental.readout: response vs control in vivo at 100 µmol/kg (%)

1. CCCN1CCC[C@@H](c2cccc(OS(=O)(=O)C(F)(F)F)c2)C1 [S-(-)-15] ... 217
2. N#Cc1cccc([C@@H]2CCCN(CCc3cccs3)C2)c1 ... 201
3. N#Cc1cccc([C@@H]2CCCN(CCc3ccccc3)C2)c1 ... 231
